B1: library; a variant is named by its letters at N, in order (parent)
chain: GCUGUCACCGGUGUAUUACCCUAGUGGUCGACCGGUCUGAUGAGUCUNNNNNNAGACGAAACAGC

variants of: B1; experiment: normalized RNA/DNA level without ligand (relative to sTRSVctl = 100) (log10 (% of sTRSVctl)); ligand: hypoxanthine (xanthine aptamer); higher = less ribozyme self-cleavage, higher mRNA level; conditions: HEK293T, reporter: mCherry (pCS4076), ligand present: no
measurement_name: normalized RNA/DNA level without ligand (log10)
# answer = number (no unit)

Previously resolved entries follow.
GCUGUCACCGGUGUAUUACCCUAGUGGUCGACCGGUCUGAUGAGUCUUGCCAGAGACGAAACAGC [UGCCAG]
1.73
GCUGUCACCGGUGUAUUACCCUAGUGGUCGACCGGUCUGAUGAGUCUACGCAGAGACGAAACAGC [ACGCAG]
1.09

Note normalized RNA/DNA level without ligand (log10) for the variant shown: GCUGUCACCGGUGUAUUACCCUAGUGGUCGACCGGUCUGAUGAGUCUAUACUCAGACGAAACAGC [AUACUC]
1.96

Note normalized RNA/DNA level without ligand (log10) for the variant shown: GCUGUCACCGGUGUAUUACCCUAGUGGUCGACCGGUCUGAUGAGUCUGAUCCUAGACGAAACAGC [GAUCCU]
1.95

Note normalized RNA/DNA level without ligand (log10) for the variant shown: GCUGUCACCGGUGUAUUACCCUAGUGGUCGACCGGUCUGAUGAGUCUCUUGAUAGACGAAACAGC [CUUGAU]
1.74

Note normalized RNA/DNA level without ligand (log10) for the variant shown: GCUGUCACCGGUGUAUUACCCUAGUGGUCGACCGGUCUGAUGAGUCUUUUUGGAGACGAAACAGC [UUUUGG]
1.74

Note normalized RNA/DNA level without ligand (log10) for the variant shown: GCUGUCACCGGUGUAUUACCCUAGUGGUCGACCGGUCUGAUGAGUCUAGAAUAAGACGAAACAGC [AGAAUA]
1.77

Note normalized RNA/DNA level without ligand (log10) for the variant shown: GCUGUCACCGGUGUAUUACCCUAGUGGUCGACCGGUCUGAUGAGUCUACGACAAGACGAAACAGC [ACGACA]
1.64

Note normalized RNA/DNA level without ligand (log10) for the variant shown: GCUGUCACCGGUGUAUUACCCUAGUGGUCGACCGGUCUGAUGAGUCUCUAUUAAGACGAAACAGC [CUAUUA]
1.85

Note normalized RNA/DNA level without ligand (log10) for the variant shown: GCUGUCACCGGUGUAUUACCCUAGUGGUCGACCGGUCUGAUGAGUCUUUAAUUAGACGAAACAGC [UUAAUU]
1.84

Cited source for all entries: the supplement of paper PMC6757056
